So I've got a bunch of molecules here, and I need their %Inh values.
tested on: MLK2; settings: concentration: 1 μM, replicates: in singlicate; n = 1;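 also: KINOMEscan kinase panel screen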
Please answer using a numeric value trailed by its unit.

Use the examples below as a reference point.
CC(C)c1nc(-c2cccc(NS(=O)(=O)c3c(F)cccc3F)c2F)c(-c2ccnc(Nc3ccc(N4CCOCC4)nc3)n2)s1 [GSK2008607]    100%
O=C(Nc1ccccc1F)NC1CCN(c2ccnc(Nc3ccc(F)cc3)n2)CC1 [GSK1379800]    0%
CN(C)Cc1ccc(-c2ccc3c(Nc4ccc(Oc5ccccn5)cc4)ccnc3c2)o1 [GW567148]    0%

Give %Inh for all molecules that follow.
1. O=C(Nc1cccc(Oc2ccc3nc(NC(=O)C4CC4)cn3n2)c1)c1ccccc1C(F)(F)F
2. Cl.Cl.NCC(C(=O)Nc1cc(Br)c(-c2ccnc3[nH]ccc23)s1)c1ccccc1 (centres unmarked) [GSK1269851]

## Result
1: 4%; 2: 18%

Give %Inh for all molecules that follow.
1. CN1CCN(CCCNc2nccc(-c3c(-c4ccc(F)cc4)nn4cc(C(F)(F)F)ccc34)n2)CC1 [GW621581]
2. Cc1cccc(NC(=O)Nc2ccc(Oc3ncnc4ccn(C)c34)cc2)c1
3. Cl.Cl.NCC(NC(=O)c1cc(-c2ccccc2)c(-c2ccnc3[nH]ccc23)s1)c1ccccc1 (centres unmarked) [GSK1321561]
4. Cc1ccc(S(=O)(=O)Nc2ccc(Nc3nccc(Nc4cccc5[nH]ncc45)n3)cc2)cc1 [GSK581271]
5. COc1cc2c(cc1OCCN1CCNCC1)ncc1c3ccc(C#N)cc3[nH]c21
6. COc1cc(Nc2nccc(-c3c(-c4cccc(NC(=O)c5c(F)cccc5F)c4)nn4ncccc34)n2)cc(OC)c1OC [GSK327238]

## Result
1. 22%
2. 0%
3. 23%
4. 0%
5. 0%
6. 39%

* * *

system: TGFBR2; settings: concentration: 1 μM, replicates: in singlicate; n = 1
MEASUREMENT LABEL: %Inh (%)
Give bare numbers, in %.

Use the examples below as a reference point.
CSc1cccc2c(-c3ccncn3)c(-c3ccc(F)cc3)nn12    24
Nc1ncc(-c2cccnc2)c2scc(-c3ccc4c(c3)CCN4C(=O)Cc3ccccc3)c12    0
O=c1[nH]cc(-c2ccc(N3CCOCC3)cc2)c2sc(-c3cn[nH]c3)cc12    0
CCn1c(-c2nonc2N)nc2c(C#CC(C)(C)O)nc(OC[C@H](N)c3ccccc3)cc21    0
Cc1ccc(F)c(C(=O)Nc2cccc(-c3nn4ccccc4c3-c3ccnc(Nc4cccc(F)c4)n3)c2)c1F    21
COc1cc(Nc2nccc(-c3c(-c4cccc(NC(=O)c5c(F)cccc5F)c4)nn4ccccc34)n2)cc(OC)c1OC    17
COCCOCCOc1cc2ncc3c4ccc(C#N)cc4[nH]c3c2cc1OC    0
Cl.Cl.NCC(C(=O)Nc1cc(Br)c(-c2ccnc3[nH]ccc23)s1)c1ccccc1 (stereo not drawn)    0
NCCCC(NC(=O)c1cc(Br)c(-c2ccnc3[nH]ccc23)s1)c1ccccc1.O=C(O)C(F)(F)F.O=C(O)C(F)(F)F (stereo not drawn)    0
COc1ccc(Nc2nccc(NCCNC(=O)c3cc4ccccc4s3)n2)cc1    0

Give %Inh for all compounds that follow.
1. Cc1cccc(NC(=O)Nc2ccc(Oc3ncnc4ccn(C)c34)cc2)c1
2. CCc1ccc(-c2ccc3c(c2)-c2c(cnn2C)S(=O)(=O)N3C)cc1
3. Nc1ncnc2c1nc(-c1ccccc1)n2-c1ccccc1
4. Cc1ccc(C(=O)N2CC[C@@H](O)C2)cc1-n1c(C)cc(OCc2ccc(F)cc2F)c(Br)c1=O
5. O=C(Nc1n[nH]c2cc(-c3ccoc3)ccc12)C1CC1

## Result
0
2
4
0
0
